Listing of entries alongside the reported inhibition of growth at 10 µM.
test system: HCT-116; experiment: Growth inhibition of human HCT116 cells at 10 uM after 48 hrs by SRB assay relative to control; type: functional; settings: HCT-116, 48 h, read-out: GI
Your answer should be a number followed by the unit of measure.

// solved cases for inhibition of growth at 10 µM follow
COc1cc2oc(-c3cccc(NC(=O)c4ccc5c(c4)OCO5)c3)cc(=O)c2c(OC)c1OC	64.5%
COc1ccccc1NC(=O)c1cccc(-c2cc(=O)c3c(OC)c(OC)c(OC)cc3o2)c1	31.9%

Request: Entry COc1cccc(NC(=O)c2cccc(-c3cc(=O)c4c(OC)c(OC)c(OC)cc4o3)c2)c1 , system HCT-116: what inhibition of growth at 10 µM was measured?
Response: 39.3%

Request: Item COc1cc2oc(-c3cccc(NC(=O)c4ccccc4)c3)cc(=O)c2c(OC)c1OC with HCT-116 - inhibition of growth at 10 µM?
Response: 32.3%

Request: Please provide the recorded inhibition of growth at 10 µM for COc1ccc(NC(=O)c2cccc(-c3cc(=O)c4c(O)c(OC)c(OC)cc4o3)c2)cc1 , tested on HCT-116.
Response: 29.5%
